test: Solubility in Octanol, water and pH media; type: physicochemical; settings: pH 6.8, aqueous buffer; PBS (pH6.8), 37° C.; read-out: Solubility
assay-endpoint: solubility
A complete answer gives the number followed by the unit.

Task: Name the reported solubility value associated with the compound CC(=O)c1c(O)c(CN2CCC(O)CC2)c2oc(-c3ccccc3)cc(=O)c2c1O
Output: 78 µg/mL

====

assay: Solubility in Octanol, water and pH media; type: physicochemical; conditions: water, 37° C., text values of BA-j and BA-f; read-out: Solubility in water
Listed here: items and their measured solubility.
A complete answer gives the number followed by the unit.

Task: Name the reported solubility value associated with the compound O=c1cc(-c2ccccc2)oc2c(CN3CCC(O)CC3)c(O)c(O)c(O)c12 [BA-j, reference compound]
Output: 77 µg/mL

Note: attention shifts to another entry.
Task: Name the reported solubility value associated with the compound CN1CCN(Cc2c(O)c(O)c(O)c3c(=O)cc(-c4ccccc4)oc23)CC1 [BA-f, reference compound]
Output: 0.53 µg/mL

====

assay: log P in Octanol/Water; type: physicochemical; conditions: octanol/water, Octanol/Water at 37° C.
Listed here: items and their measured logP.
Please reply with the number alone, leaving off any unit.

Task: Name the reported logP value associated with the molecule CN1CCN(Cc2c(O)c(O)c(O)c3c(=O)cc(-c4ccccc4)oc23)CC1 [BA-f, reference compound]
Output: 1.7

Task: Next record, please: CC(=O)c1c(O)c(CN2CCCC2CO)c2oc(-c3ccccc3)cc(=O)c2c1O (centres unmarked)
Output: 1.77

Task: Next record, please: CC(=O)c1c(O)c(CN2CCN(CCO)CC2)c2oc(-c3ccccc3)cc(=O)c2c1O
Output: 2.07

====

test: Pharmacokinetics by oral in monkey (urine drug concentration-time curve); assay type: in vivo; settings: oral 5 mg/kg, monkey, urine drug concentration
assay-endpoint: Cmax1 (µM)
Record the value in µM, omitting the unit from your answer.

Task: Name the reported Cmax1 value associated with the molecule CC(=O)c1c(O)c(CN2CCC(O)CC2)c2oc(-c3ccccc3)cc(=O)c2c1O
Output: 26.4

====

experiment: Pharmacokinetics by oral in monkey (urine drug concentration-time curve); assay type: in vivo; conditions: rhesus, monkey, urine, po, monkey (n = 6), 3 mg/kg in Table 4, 5 mg/kg in text; read-out: T max, redistributive period (Tmax2)
assay-endpoint: Tmax (h)
Record the value in h, omitting the unit from your answer.

Task: Name the reported Tmax value associated with the compound CC(=O)c1c(O)c(CN2CCC(O)CC2)c2oc(-c3ccccc3)cc(=O)c2c1O [CH-j]
Output: 9

====

test: log P in Octanol/Water; format: physicochemical; settings: octanol/water, Octanol/Water at 37° C.
Listed here: items and their measured logP.
Please reply with the number alone, leaving off any unit.

Examples with answers:
Task: Name the reported logP value associated with the compound CC(=O)c1c(O)c(CN2CCOCC2)c2oc(-c3ccccc3)cc(=O)c2c1O [CH-d]
Output: 2.62

Task: Next record, please: CC(=O)c1c(O)c(CN2CCN(C)CC2)c2oc(-c3ccccc3)cc(=O)c2c1O [CH-f]
Output: 0.99

Task: Next record, please: O=c1cc(-c2ccccc2)oc2c(CN3CCC(O)CC3)c(O)c(O)c(O)c12 [BA-j, reference compound]
Output: 0.69

Task: Next record, please: CC(=O)c1c(O)c(CN2CCC(O)CC2)c(O)c2c(=O)cc(-c3ccccc3)oc12 [is-CH-j]
Output: 1.82

Note: attention shifts to another entry.
Task: Name the reported logP value associated with the compound CC(=O)c1c(O)c(CN2CCC(O)CC2)c2oc(-c3ccccc3)cc(=O)c2c1O [CH-j]
Output: 1.63

// data source = patent US10471054B2
